assay: yeast display, Sf9 membrane polyspecificity reagent, FACS + sequencing; frameworks hold sequencing errors
parameter: polyreactivity (PSR sort gate)

>>> result("QVQLVESGGGLVQAGGSLRFSCAASGSTFGYYAMGWYRQAPGKEREMVAVITYSGGSTYYADSVKGRFTISRDNAKNTVYLQMNSLKPEDTAVYYCATDNYDWSSWAFRGYWYDYWGQGTQVTVSS")
"low polyreactivity"
>>> result("QVQLVESGGGLVQAGGSLRLSCAASGITSNTYAKGWYRQATGKERELVATITSGGSTNYADSVKGRFTISRDNAKNTVYLQMNSLKPEDTAVYFCNREYWLPTQFDYWGQGTQVTVSS")
"low polyreactivity"
>>> result("QVQLVESWGALVQAGGSLRLSCAPSGSSKLMLWEGIDRRLGNKGSWLPLIVLVVLRNYADSVKGRFTISRDNAKNTLYLQMNSLKPDDTAVYYCAATPIGSGGWGDYWGQGTQVTLSS")
"low polyreactivity"
>>> result("QVQLVESGGGLVQAGGSLRLSCAASGYIFWSNTMGWYRQAPGKERELVAAISQSTASTYYADSVKGRFTISRDNAKNTVYLQMNSLKPEDTAVYYCAADDYIDGDDYWGQGTQVTVSS")
"low polyreactivity"
>>> result("QVQLVESGGGLVQAGGSLRLSCAASGIIFIIYTMGWYRQSPGKERELVAAISWSGGSTYYADSVKGRFTISRDNAKNTVYLQMNSLKPEDTAVYYCAADVANWYGGGNSDYDHEYWGQGPQVTVSS")
"low polyreactivity"
>>> result("QVQLVETGGGLVQAGGSLRISCAPSGSIFQRYAMGWYTQAPGKERELVAAITGSGGSTYYADSVMWRFTISRDNAKKTVYLQMNILKPEDSAVYYCAKRYPSRQYTLYNYWGLGTQVTVSS")
"high polyreactivity"
>>> result("QVQLVESGGGLVQAGGSLRLSCAASGIIFVYYAMGWYRQAPGKERELVAAISRSGGRTYYADSVKGRFTISRDNAKNTVYLQMNSLKPEDTAVYYCAAEVYKRYRYDYWGQGTQVTVSS")
"high polyreactivity"
>>> result("QDQLVESGGGLVQAGGSLSLICDASGRTFSTKFMGWYIQAAGKERQLVAAITTSSSRTYYADSVKGRFTISRDNANHTVYLLMNSLKPEDTAVYYCAARIHGSWSFDYWGQGTQVTLSS")
"low polyreactivity"
>>> result("QDQLVESGGGLVQAGGSLRLSCAASGSTFTYYAMGWYRQAPGKERELVAAIRNSDGTTYYADSVKGRFTLSRDTAKFTVYLQMNSLKPEDTAVYYCAAGPRGRWSTYDYWGQGTQVNVSS")
"low polyreactivity"
>>> result("QVQLVESGGGLVQAGGSLRLSFAASGFIFWNYPMGWYRQAPGKERELVAAISKRGGSTYYADSVKGRFTISRDNAKHNVYLQMNSLKPEDTAVYYCNAGRTYTALNGDYWGQGTQVTVSS")
"high polyreactivity"
>>> result("QVQLVESWGGLVQAGGSLRLSCAASGSIFFPNAMGWYRQAPWKERELVAAIRGGTNTYYADSVKGRFTISRDNAKNTVYLQMNSLKPEDTAVYYCAARRSSHWFTYDYWGQGTQVTVSS")
"high polyreactivity"

---

assay: yeast display, Sf9 membrane polyspecificity reagent, FACS + sequencing; frameworks hold sequencing errors
parameter: polyreactivity (PSR sort gate)

>>> result("QVQLVESGGGLVQAGGSLRLSCAASGYTFVKYAMGWYRQAPGKERELVASISWSGGRTYYADSVKGRFTISRDNAKNTVYLQMNSLKPEDTAVYYCATRPTWYSYDYWGHGTQVTVSS")
"high polyreactivity"
>>> result("QVQLVESAGGLVQAGGSLRLSCAASGLTFYRYAMGWYRQAPGKERELVAAISSADRTYYADSVKGRFTISRDNAKNTVYLQMNSLKPEDTAVYYCNARGIGRSTKWSSRDYWGQGTQVTVSS")
"high polyreactivity"
>>> result("QVQLVESGGGLVQAGGSLRLSCAASGRIFGRNAMGWYRQAPGKERELVAAIRLSGGSTYYADSVKGRFTISRDNAKNTVYLQMNSLKPEDTAVYYCATRPVANGRKYDYWGQGTQVTVSS")
"high polyreactivity"
>>> result("QVQLVESGGGLVQAGGSLRLSCAASGITFQANAMGWYRQAPGKERELVAAISSSDGSTYYADSVKGRFTISRDNAKNTVYLQMNSLKPEDTAVYYCNVDYAQRVFLYDYWGQGTQVTVSS")
"low polyreactivity"
>>> result("QDQLVESGGGLVQAGGSLRLSCAASVSIFGSYAMGWYRQAPGKERELVAGITSSGGSTYYADSVKGRFTISRDNAKNTVYLQMNSLKPEDTAVYYCNAPLGWWQFYYCGQGTQVTVSS")
"high polyreactivity"
>>> result("QVQLVESGGGLVQAGGSLRLSCAASGRTFAKSAMGWSRQAPGKERELVAAIRWSGGSTYYADSVKARFTISRDNAKNTVYLQMNSLKPEDTAVYYCATERFLLGLGYDYWGQGTQVTVSS")
"high polyreactivity"
>>> result("HVQLVESGGGLVQAGGSLRLSCAASGFTFPLYALGWYRPAPGKEREVVAAIRSSGGSTYYADSVKGRFTISRDKAKNTVNLQMNSLKPEDTAVSYCAKVRSTRRLDTYYYWGQGTQVTVSS")
"high polyreactivity"
>>> result("QVQLVESGGGLVQAGGSLRLSCAASGFIFDDNAMGWYRQAPGKERELVAAITSGGGTTYYADSVKGRFTISRDTAKNTVYLQMNSLKPEDTAVYYCNAVPSQHDEFDYWGQGTQVTVSS")
"low polyreactivity"
>>> result("QVQLGESGGGLVQAGGSLRLSCAASGSTFRINAMGWYRQAPGKERELVADINSGGNTTYADSVKGRFTISRDNAKNTVYLQMNSLKPEDTAVYYCAAPRTYYSELTSPYDYCGQGTQVTVSS")
"low polyreactivity"
>>> result("QEQLQESGDGLVQAGGSLRLSSAASGTIFSDYGMGGYRQAPGKERELLAGISDGCNTNYTDSVKGRFTISRDNAHRVSADEQPETGGYRGVLLRGSERWLLFYVYWGQGTQGTVSS")
"high polyreactivity"
>>> result("QVQLVESGGGLVQAGGSLRLICAASGFTFGPYDMGGYRQAPGKERELVAAITDSSGSTHYADSVKGRFTISRDNAKNTVYLQMNSLKPEDTAVYYCAASDVVFALNGYYPGEDDYWGQGTQVTVSS")
"low polyreactivity"
